Quick reference for protein stability index among some variants
B1: WEE1 (parent)
chain: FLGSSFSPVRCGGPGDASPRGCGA

variants of: B1; assay: protein stability index of a GFP-peptide fusion (GPS, HEK-293T) (PSI 1-6); higher = more stable; conditions: c terminus: a fixed tail appended;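 also: lentivirally expressed fusions sorted by FACS into six bins by GFP to DsRed ratio, PSI derived from sequencing read proportions per bin multiplied by bin number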

// below: answered variants
FLGSYFSPVRCGGPGDASPRGCGA: 2.51
LLGSSFSPVRCGGPGDASPRGCGA: 2.56
FLGSSFSPVRCGGPGDATPRGCGA: 1.42
FLGYSFSPVRCGGPGDASPRGCGA: 1.75
FLGDSFSPVRCGGPGDASPRGCGA: 2.39
FLGSSFSPVRCGGPGDASPRGRGA: 2.27

Give the value of protein stability index reported for the following: "FLGSSFSPVRCGGPGDDSPRGCGA"
2.34

Determine its reported protein stability index: "FLGCSFSPVRCGGPGDASPRGCGA"
2.19

Note down protein stability index recorded for "FLGSSFSPVRRGGPGDASPRGCGA"
2.69
